measured on: PstS (Pseudomonas aeruginosa, UniProt G3XDA8)
Sequence (G3XDA8 25-323): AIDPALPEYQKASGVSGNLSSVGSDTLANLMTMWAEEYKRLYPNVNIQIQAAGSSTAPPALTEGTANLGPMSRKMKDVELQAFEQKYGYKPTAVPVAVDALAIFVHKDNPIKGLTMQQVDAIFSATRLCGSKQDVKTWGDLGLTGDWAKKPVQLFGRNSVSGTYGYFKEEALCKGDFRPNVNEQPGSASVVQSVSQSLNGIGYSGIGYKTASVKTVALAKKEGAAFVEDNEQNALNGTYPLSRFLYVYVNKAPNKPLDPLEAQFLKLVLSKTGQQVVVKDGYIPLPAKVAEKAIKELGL
protocol: biochemical
recorded metric: Kd (nM)
Enter your answer as a number in nM; do not include the unit.

Qu. Could you tell me which Kd is on file for O=P(O)(O)O [Pi, K2HPO4] ?
Ans. 7

Qu. Suppose we examine the compound Nc1ncnc2c1ncn2[C@@H]1O[C@H](COP(=O)(O)OP(=O)(O)OP(=O)(O)O)[C@@H](O)[C@H]1O [ATP] ; what Kd value has been reported?
Ans. 300

Qu. Kd for O=P(O)(O)OP(=O)(O)O [pyrophosphate] ?
Ans. 2600

###

measured on: CtpH-LBD (Pseudomonas aeruginosa, UniProt G3XDA3)
Sequence (G3XDA3 60-214): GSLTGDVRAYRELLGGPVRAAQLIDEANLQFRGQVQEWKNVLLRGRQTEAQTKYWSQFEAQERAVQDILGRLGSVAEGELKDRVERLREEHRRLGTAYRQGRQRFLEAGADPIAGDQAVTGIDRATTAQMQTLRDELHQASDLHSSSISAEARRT
protocol: biochemical
recorded metric: Kd (µM)
Numbers only; they are read as µM.

Qu. Fill in: Kd of `Nc1ncnc2c1ncn2[C@@H]1O[C@H](COP(=O)(O)OP(=O)(O)O)[C@@H](O)[C@H]1O` is ___
Ans. 103

The measurements presented in this section are drawn from paper PMC4926252.
